// provenance: ChEMBL document CHEMBL3045726

Activity values by entry
# Test system: Pyricularia oryzae
# protocolNotes: Fungicidal activity against Magnaporthe oryzae in rice seedlings assessed as control of rice blast at 500 ppm by preventive foliar treatment
# Type: functional
Report the figure in % without appending any unit label.

INSERT INTO results (smilesstr, assayedsystem, resulttype, observed) VALUES
  ('Cc1cc(C)n(-c2ccc(Cl)nn2)n1', 'Pyricularia oryzae', 'Activity', 31);

What Activity value was documented for this compound, Cc1cc(C)nc(-n2nc(-c3ccccc3)cc2-c2ccccc2)n1 ?
31

What Activity value was documented for this compound, CCc1cc(CC)n(-c2nc(C)cc(C)n2)n1 ?
40

What Activity value was documented for this compound, Cc1cc(C)nc(-n2nc(C)c(C)c2C)n1 ?
81

What Activity value was documented for this compound, CCCCCCc1c(C)nc(-n2nc(C)cc2C)nc1O ?
81

What Activity value was documented for this compound, CCc1cc(C)n(-c2ncccn2)n1 ?
74

What Activity value was documented for this compound, Cc1cc(C)nc(-n2nc(C(C)(C)C)cc2C(C)(C)C)n1 ?
69

What Activity value was documented for this compound, Cc1cc(C)n(-c2nc(C)c(C)s2)n1 ?
0

What Activity value was documented for this compound, Cc1cc(C)nc(-n2nc(C(F)(F)F)cc2C(F)(F)F)n1 ?
51
